Biological target: MMP-14 (Homo sapiens)
Construct: The catalytic domain enzyme was expressed in E. coli inclusion bodies, solubilized in urea; made in house
Experiment: In vitro MMP inhibition, Ki determination (fluorogenic substrate II)
Assay type: biochemical
Conditions: value outside parentheses; read-out: MMP-14 Ki
Checkbox rule: Ki lower than 3 µM = 1; Ki not lower than 3 µM = 0.

Example cases with answers are listed next.
> print(dat)
                                   compound  assigned.class
1  O=C(NO)C1(S(=O)(=O)N2CCN(c3ccc(-c4ccc(Cl)c(Cl)c4)cc3)CC2)CCOCC1               1
2  CCCCc1ccc(N2CCN(S(=O)(=O)C3(C(=O)NO)CCN(CCOC)CC3)CC2)nc1               1
3  O=C(NO)C1(S(=O)(=O)N2CCN(c3cnn(CCCC(F)(F)F)c(=O)c3)CC2)CCOCC1               0

From here, focus on the item given below.
[Q] # TODO verify Ki < 3 µM strictly for this compound: "Cc1ccc(-c2csc(N3CCN(S(=O)(=O)C4(C(=O)NO)CCOCC4)CC3)n2)cc1"
[A] 0
